Provenance of the data: ChEMBL document CHEMBL5150058

Test: Agonist activity at cADPR binding protein in sea urchin egg homogenate assessed as increase in Ca2+ release by Fluo-3 based fluorescence assay
Format: tissue-based, Strongylocentrotus purpuratus
I'd be grateful if you could share measured pEC50 for these entries.
Give bare numbers, as −log10 of the molar value.

| chemical.structure | measured.result |
| --- | --- |
| Nc1c2ncn3c2nc[n+]1[C@@H]1O[C@H](COP(=O)([O-])OP(=O)(O)OC[C@H]2O[C@@H]3[C@H](O)[C@@H]2O)[C@@H](O)[C@H]1O | 6.96 |

Please find the next compound below.
# pEC50 lookup, item C#CCO[C@@H]1[C@H](O)[C@H]2COP(=O)(O)OP(=O)([O-])OC[C@H]3O[C@H]([C@H](O)[C@@H]3O)[n+]3cnc4c(ncn4[C@@H]1O2)c3N 5.07
